Below, each entry is listed alongside its reported Kd.
Target: T1, huMICA*008 alpha 3-his (human)
T1 construct: whole construct entry: GS, alpha 3 domain (Thr204-Ser297), GNS, His8; also the construct of the FPOP experiment; also called MICA008.His; MICA*008 alpha3 construct
T1 chain: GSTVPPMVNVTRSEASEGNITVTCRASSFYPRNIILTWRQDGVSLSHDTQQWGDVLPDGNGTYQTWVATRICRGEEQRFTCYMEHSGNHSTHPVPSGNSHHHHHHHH
Assay: SPR, Biacore 8K, antibody on Protein A chip
# value in nM; strip the unit string

Req: Look up Kd: 1D5v22 (antibody, IgG1, V domains shown, humanized variant of 1D5) VH: EIQLVQSGAEVKKPGASVKVSCKASGYAFTSQNIYWVRQAPGQGLEWIGYIEPYNVVPMYNPKFKGRATLTRDKSTSTAYLELSSLRSEDTAVYYCARSGSSNFDYWGQGTLVTVSS VL: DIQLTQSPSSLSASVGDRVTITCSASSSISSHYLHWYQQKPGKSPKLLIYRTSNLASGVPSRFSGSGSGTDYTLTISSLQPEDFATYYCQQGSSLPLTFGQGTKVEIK
Resp: 4.98

Req: Try 13A9v1 (antibody, IgG1, V domains shown, humanized variant of 13A9) VH: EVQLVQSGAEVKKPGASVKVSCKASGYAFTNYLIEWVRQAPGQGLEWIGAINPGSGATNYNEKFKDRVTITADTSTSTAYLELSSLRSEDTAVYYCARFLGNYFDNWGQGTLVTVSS VL: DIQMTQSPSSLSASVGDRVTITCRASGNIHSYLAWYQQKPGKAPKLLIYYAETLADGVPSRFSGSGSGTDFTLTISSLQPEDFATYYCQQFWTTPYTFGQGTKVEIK next.
Resp: 5.6

Req: Try 15F11v5 (antibody, IgG1, V domains shown, humanized variant of 15F11) VH: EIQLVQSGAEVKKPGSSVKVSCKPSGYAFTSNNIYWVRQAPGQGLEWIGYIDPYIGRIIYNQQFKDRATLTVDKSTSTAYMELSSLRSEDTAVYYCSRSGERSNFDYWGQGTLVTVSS VL: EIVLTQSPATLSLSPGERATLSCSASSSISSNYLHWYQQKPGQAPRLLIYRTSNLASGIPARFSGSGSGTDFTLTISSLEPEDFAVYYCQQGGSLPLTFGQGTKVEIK next.
Resp: 3.2

Req: Try 1D5v23 (antibody, IgG1, V domains shown, humanized variant of 1D5) VH: EIQLVQSGAEVKKPGASVKVSCKASGYAFTSQNIYWVRQAPGQGLEWIGYIEPYNVVPMYNPKFKGRATLTVDTSTSTAYLELSSLRSEDTAVYYCARSGSSNFDYWGQGTLVTVSS VL: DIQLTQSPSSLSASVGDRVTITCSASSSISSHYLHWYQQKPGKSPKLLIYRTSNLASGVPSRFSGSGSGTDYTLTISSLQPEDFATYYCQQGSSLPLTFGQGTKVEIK next.
Resp: 0.58

Req: Try 6E1.1.12 (antibody, V domains shown, mouse variable domains) VH: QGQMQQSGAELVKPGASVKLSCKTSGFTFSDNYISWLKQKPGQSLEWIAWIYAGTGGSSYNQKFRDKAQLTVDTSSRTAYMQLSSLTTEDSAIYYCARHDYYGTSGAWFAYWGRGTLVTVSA VL: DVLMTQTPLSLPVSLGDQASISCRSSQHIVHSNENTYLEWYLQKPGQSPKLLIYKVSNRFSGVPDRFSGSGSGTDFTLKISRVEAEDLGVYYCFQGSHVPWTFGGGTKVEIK next.
Resp: 3.72
